This collection of values is drawn from patent US20200369765A1.

EXPERIMENTAL TARGET: T1, Human Siglec-12 (human, UniProt Q96PQ1 19-595)
T1 construct: Expressed on transfected CHO cells; also called HuSiglec-12
T1 sequence (Q96PQ1 19-595): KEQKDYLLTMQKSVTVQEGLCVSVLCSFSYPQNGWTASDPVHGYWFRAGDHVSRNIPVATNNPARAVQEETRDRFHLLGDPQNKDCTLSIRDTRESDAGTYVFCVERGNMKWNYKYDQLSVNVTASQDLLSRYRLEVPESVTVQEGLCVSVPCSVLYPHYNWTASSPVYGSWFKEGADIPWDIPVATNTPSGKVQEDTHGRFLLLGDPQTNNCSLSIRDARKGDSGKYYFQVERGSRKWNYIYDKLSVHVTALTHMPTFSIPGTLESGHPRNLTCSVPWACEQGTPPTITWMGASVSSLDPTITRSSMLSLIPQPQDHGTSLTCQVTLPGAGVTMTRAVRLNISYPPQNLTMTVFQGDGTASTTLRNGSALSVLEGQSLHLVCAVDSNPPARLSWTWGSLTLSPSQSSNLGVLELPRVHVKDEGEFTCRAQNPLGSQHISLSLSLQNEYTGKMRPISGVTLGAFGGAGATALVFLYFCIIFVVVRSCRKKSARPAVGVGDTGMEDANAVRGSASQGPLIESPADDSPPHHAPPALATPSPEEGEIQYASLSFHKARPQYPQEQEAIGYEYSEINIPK
TEST DESCRIPTION: flow cytometry, CHO transfectants

BINDER	binding result
mAb3 (antibody, human IgG1, V domains shown) VH: EVQLLETGPGLVKPSQSLSLTCTVTGYSITGGFAWNWIRQFPGNTLEWMGYIGYGGSTSYNPSLNSRISITRDTSKNHFFLQFNSVTTEDSATYYCARGDYLFAYWGQGTLVTVSA VL: DILMTQSPASLSASVGETVSITCRASGNIHNYLAWYLQRQGKSPQLLVYNAKTLADGVPSRFSGTGSGTQFSLKINSLQPEDFGSYYCQHFWSTPRTFGGGTKLEIK	binds
